Test system: A673/TR/shEF
Experiment description: cell viability (LOESS-normalised, relative to median of negative controls) (log2 ratio); higher = more viable cells (less compound effect), active = hit call of the paper (over 3 MAD below the median)
Experimental context: 2.5 µM; library screen: screen1; EWS-FLI1 expression: high (no doxycycline); treatment time: 72 h
Hit rate of the full screen: of about 3,200 compounds, about 300 (9.4%) showed activity. The sample as a whole holds a higher share of actives than the screen did.
Assign cell viability (log2) to each entry below.
Provide a numeric answer; units are not to be included.

Q: What measured cell viability (log2) goes with CC(=O)c1c(O)c(C)c(O)c2c1oc1c(C(C)=O)c(O)c(C)c(O)c12 ?
Result: 0.0533

Q: Then this compound: Cc1c(O)c(C(=O)CC(C)C)c2oc3c(C(=O)CC(C)C)c(O)c(C)c(O)c3c2c1O
Result: 0.0935

Q: Same lookup for O=c1c(O)c(-c2cc(O)c(O)c(O)c2)oc2cc(O)cc(O)c12 , please.
Result: 0.0517

Q: Ok, now CC1(C)OC(=O)CC(O)[C@@]2(C)C1CC(=O)[C@]1(C)C2CCC2(C)C(c3ccoc3)OC(=O)[C@H]3O[C@]321 (stereo not given in full)
Result: 0.0671

Q: Repeat with O=C(/C=C/c1ccc(-c2cccc(Cl)c2)o1)c1ccco1
Result: 0.147

Q: Proceed to CC(=O)/C=C/C1C(C)(O)CCC2C(C)(C)CCCC21C (stereo not given)
Result: 0.148

Q: // repeat for CC1(C)C(=O)C=C[C@]2(C)[C@H]3CC[C@@]4(C)[C@H](c5ccoc5)OC(=O)[C@H]5O[C@]54[C@]3(C)C=C[C@@H]12 and report
Result: 0.1

Q: Try this compound too: CN(C)c1ccc(C(=C2C=CC(=[N+](C)C)C=C2)c2ccc(N(C)C)cc2)cc1
Result: 0.0691

Q: Then this compound: C=C(C)C1Cc2c(cc3oc(CO)cc(=O)c3c2O)O1 (stereo not given)
Result: 0.067

Q: Another compound to look at: O=C(O)C1CC(C2CCCCN2)CN2CCCCC12 (stereo not given)
Result: 0.146

###

System: A673/TR/shEF
Experiment description: cell viability (LOESS-normalised, relative to median of negative controls) (log2 ratio); higher = more viable cells (less compound effect), active = hit call of the paper (over 3 MAD below the median)
Experimental context: 0.25 µM; library screen: screen2; EWS-FLI1 expression: low (doxycycline-induced shRNA knockdown); treatment time: 72 h
The whole screen tested about 3,200 compounds, of which about 300 (9.4%) showed activity. The sample holds actives, similar compounds and a random draw of the others, so the mix is not that of the screen.
Can you answer with just one of these options? yes (1) = active, no (0) = inactive

Q: Outcome? COc1cc(NC(C)CCCN)c2ncccc2c1 (centres undefined)
Result: no (0)

Q: Now the compound CNCCNS(=O)(=O)c1cccc2cnccc12
Result: no (0)

Q: Query CCC1(O)CC2CN(CCc3c([nH]c4ccccc34)[C@@](C(=O)OC)(c3cc4c(cc3OC)N(C)C3[C@]45CCN4CC=C[C@@](CC)([C@@H](OC(C)=O)[C@]3(O)C(=O)OC)[C@H]45)C2)C1 (some centres undefined) next
Result: yes (1)

Q: Moving on to the next compound: N=c1ccn2c(n1)O[C@H]1[C@H](O)[C@@H](CO)O[C@H]12
Result: no (0)

Q: What do you have for Cc1cnc(C(=O)NCCc2ccc(S(=O)(=O)NC(=O)NC3CCCCC3)cc2)cn1 ?
Result: no (0)

Q: And CC(C)[C@@H]1NC(=O)[C@H](CCCCN)NC(=O)[C@@H](Cc2c[nH]c3ccccc23)NC(=O)[C@H](Cc2ccc(O)cc2)NC(=O)[C@H](C)N(C)C(=O)[C@H](Cc2ccccc2)NC1=O ?
Result: no (0)

Q: // same read-out, input: CC(=O)O[C@H]1CC2(C)[C@@H](C[C@@H](O)[C@H]3[C@@]4(C)CC[C@@H](O)[C@@H](C)[C@@H]4CC[C@@]32C)/C1=C(/CCC=C(C)C)C(=O)O (some centres undefined)
Result: no (0)

Q: Proceed to N=C(N)c1ccc(N)cc1
Result: no (0)

Q: Now consider c1ccc([C@@H]2CCC[C@@H]2NC2=NCCCCCCCCCCC2)cc1 .
Result: no (0)

Q: Same thing, different compound: NC(N)=NCCNS(=O)(=O)c1cccc2cnccc12
Result: no (0)

Q: Another compound: COc1cc([C@@H]2c3cc4c(cc3[C@@H](O[C@@H]3O[C@@H]5CO[C@@H](C)O[C@H]5[C@H](O)[C@H]3O)[C@H]3COC(=O)[C@H]23)OCO4)cc(OC)c1O
Result: no (0)

Q: And what about the compound CCN(CC)CCCC(C)Nc1c2ccc(Cl)cc2nc2ccc(OC)cc12 (centres undefined) ?
Result: no (0)

Q: Another compound to look at: O=C1NC(=O)C(c2ccccc2)(c2ccccc2)N1
Result: no (0)

Q: // same read-out, input: C[C@H](NCCc1ccc(O)cc1)[C@H](O)c1ccc(O)cc1
Result: no (0)

Q: How about N[C@H](CO)C(=O)O ?
Result: no (0)

Q: Also check CCN(CC)C(=S)SSC(=S)N(CC)CC
Result: no (0)

Q: Then this compound: CO[C@H]1C=CC2CCN3CCC4=C(CC(=O)OC4)[C@]23C1 (some centres undefined)
Result: no (0)

Q: Check Nc1ncn([C@@H]2O[C@H](CO)[C@@H](O)[C@H]2O)c(=O)n1 too.
Result: no (0)

Q: Another compound to look at: Cc1ccc(S(=O)(=O)/C=C/C#N)cc1
Result: no (0)

Q: Try this compound next: CCC1(c2ccccc2)C(=O)NCNC1=O
Result: no (0)

Q: Similarly, CC(C)C[C@H](N)CSSC[C@@H](N)CC(C)C ?
Result: no (0)

Q: Entry to check: C#CCN(C)Cc1ccccc1
Result: no (0)

Q: Try the compound Nc1nc(Nc2ccccc2)nc2c1ncn2C1O[C@H](CO)[C@@H](O)[C@H]1O (some centres undefined)
Result: no (0)

Q: Lookup Nc1ccn([C@@H]2O[C@H](CO)[C@@H](O)[C@@H]2O)c(=O)n1
Result: no (0)

Q: Check CCCCCCCCCCCCCCCC(=O)NCC(COP(=O)([O-])OCC[N+](C)(C)C)OCC (centres undefined) too.
Result: no (0)

Q: Then what about the compound C[n+]1c2cc(N)ccc2cc2ccc(N)cc21 ?
Result: no (0)

Q: Thanks! And Nc1ccn([C@H]2CC[C@@H](CO)O2)c(=O)n1 ?
Result: no (0)

Q: And for CC(C)(C)c1ccc(S(=O)(=O)/C=C/C#N)cc1 ?
Result: no (0)

Q: Next entry: CN1C(=O)CCC1c1cccnc1 (centres undefined)
Result: no (0)

Q: Likewise for COc1ccc2cc3[n+](cc2c1OC)CCc1cc2c(cc1-3)OCO2 ?
Result: no (0)

Q: Then this compound: C[N+](C)(C)CCOP(=O)([O-])OP(=O)(O)OC[C@H]1O[C@@H](n2ccc(N)nc2=O)[C@H](O)[C@@H]1O
Result: no (0)

Q: One more compound: Brc1ccc([C@H]2CN3CCSC3=N2)cc1
Result: no (0)

Q: Field entry: COc1ccc(CCNCC(O)c2ccc(O)cc2)cc1OC (centres undefined)
Result: no (0)

Q: Note, next up: NC(C(=O)O)c1cccc(O)c1 (centres undefined)
Result: no (0)

Q: Next compound: CN[C@H](Cc1ccccc1)C(=O)N1CCC[C@H]1C(=O)N[C@@H](Cc1c[nH]c2ccccc12)C(=O)C(F)(F)C(F)(F)F
Result: no (0)

Q: Same thing, different compound: O=C(O)C1CN(CCCP(=O)(O)O)CCN1 (centres undefined)
Result: no (0)

Q: Here is the next compound: O=S(=O)(NCCNC/C=C/c1ccc(Br)cc1)c1cccc2cnccc12
Result: no (0)

Q: And N[C@@H](CC(=O)O)C(=O)O ?
Result: no (0)

Q: And then CCCCC1C(=O)N(c2ccccc2)N(c2ccccc2)C1=O , what is it?
Result: no (0)

Q: Repeat for the following compound: c1ccc([C@H]2CN3CCSC3=N2)cc1
Result: no (0)

Q: Lookup CCCSc1ccc2nc(NC(=O)OC)[nH]c2c1
Result: no (0)

Q: Let us now turn to NC1(C(=O)O)CC1
Result: yes (1)

Q: NCC(O)c1ccc(O)c(O)c1 (centres undefined) , same question.
Result: no (0)

Q: What do you have for NCCNS(=O)(=O)c1cccc2cnccc12 ?
Result: no (0)
